Assay: Inhibition of Vpu ion channel in HIV1 1064.52 in human MDM assessed as inhibition of vrius release
Set-up: species or system Human immunodeficiency virus 1
measured_attribute: pEC50
Kindly note that pEC50 refers to -log10 of the concentration in mol/L and answer with the value alone.

Task: Specify measured pEC50 for Cn1cc(-c2cccc3cc(C(=O)NC(=N)N)ccc23)cn1 .
Output: 5.57

* * *

Assay: Selectivity index, ratio of TC50 for human MDM cells to EC50 for HIV1 1064.52 infected in human MDM cells
Type: toxicity, cell-based
Settings: read-out: Selectivity Index
measured_attribute: selectivity ratio

Task: Specify measured selectivity ratio for Cn1cc(-c2cccc3cc(C(=O)NC(=N)N)ccc23)cn1 .
Output: 61.9

* * *

Experiment: Cytotoxicity against human MDM cells assessed as cell viability at 0 to 10 uM by MTT assay
Assay type: cell-based
Settings: read-out: Activity
measured_attribute: viability at up to 10 µM

Task: Specify measured viability at up to 10 µM for Cn1cc(-c2cccc3cc(C(=O)NC(=N)N)ccc23)cn1 .
Output: > 96%

* * *

Experiment: Selectivity index, ratio of TC50 for human MDM cells to EC50 for HIV1 92UG029 infected in human MDM cells
Assay type: toxicity, cell-based
Conditions: read-out: Selectivity Index
measured_attribute: selectivity ratio
Respond using a number only.

Task: Specify measured selectivity ratio for Cn1cc(-c2cccc3cc(C(=O)NC(=N)N)ccc23)cn1 .
Output: 14

* * *

Experiment: Selectivity index, ratio of TC50 for human MDM cells to EC50 for HIV1 92TH001 infected in human MDM cells
Assay type: toxicity, cell-based
Conditions: read-out: Selectivity Index
measured_attribute: selectivity ratio
Respond using a number only.

Task: Specify measured selectivity ratio for Cn1cc(-c2cccc3cc(C(=O)NC(=N)N)ccc23)cn1 .
Output: 140

* * *

Assay: Selectivity index, ratio of TC50 for human MDM cells to EC50 for HIV1 MDR3761 infected in human MDM cells
Type: toxicity, cell-based
Settings: read-out: Selectivity Index
measured_attribute: selectivity ratio
Respond using a number only.

Task: Specify measured selectivity ratio for Cn1cc(-c2cccc3cc(C(=O)NC(=N)N)ccc23)cn1 .
Output: 39.3

* * *

Assay: Selectivity index, ratio of TC50 for human MDM cells to EC50 for HIV1 G-92NG003-G3 infected in human MDM cells
Assay type: toxicity, cell-based
Conditions: read-out: Selectivity Index
measured_attribute: selectivity ratio

Task: Specify measured selectivity ratio for Cn1cc(-c2cccc3cc(C(=O)NC(=N)N)ccc23)cn1 .
Output: 131
